- System: T1, hSIRPαV2D1 with histidine tag (human)
- T1 construct: analyte of the Biacore experiments; also called first immunoglobulin-like domain of human SIRPα variant V2; not shown: histidine tag
- T1 sequence (chain, as listed by the source limits assumed): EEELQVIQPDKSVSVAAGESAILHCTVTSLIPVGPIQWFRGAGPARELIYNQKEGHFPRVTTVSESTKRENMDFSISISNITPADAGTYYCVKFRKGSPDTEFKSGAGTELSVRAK
- Assay Procedure: SPR (Biacore 3000), IgG captured on anti-human IgG, His-tagged D1 analyte
- Description: Goat anti-human IgG capture antibody (Jackson Laboratories; 109-005-098) was immobilized on the four flow cells in each sensor chip using standard amine coupling chemistry. […] Generally, concentrations from about 0.1×KD to about 10×KD are appropriate for kinetic analysis. From one to six different concentrations were evaluated for each antibody:analyte interaction, depending on the comparisons to be made in an individual experiment. […]
Quick reference for pKd among some binders
pKd here: minus log base 10 of the concentration, concentration in moles per litre.

Answered cases to consult:
Binder: Ab11_G4 (antibody, human IgG4 S228P, kappa, V domains shown, human IgG4 format) VH: EVQLVESGGGLVKPGGSLRLSCAASGFTFSSYVMSWVRQTPGKGLEWVATISSGGTYTYYPDSVKGRFTLSRDNAKNSLYLQMNSLRAEDTAVYYCASQLTGSEFDYWGQGTTVTVSS VL: DIVITQSPASLAVSLGERATISCRASESVDSYGNSFMHWYQQKPGQPPKLLIYRASNLESGVPDRFSGSGSRTDFTLTINPLQAEDVATYYCHQSGDLPWTFGGGTKVEIKR
pKd: 8.51
--
Binder: Ab8_G4 (antibody, human IgG4 S228P, kappa, V domains shown, human IgG4 format) VH: EVQLVESGGGLVKPGGSLRLSCAASGFTFSSYVMSWVRQTPGKGLEWVATISSGGTYTYYPESVKGRFTLSRDNAKNSLYLQMNSLRAEDTAVYYCASQLTGSEFDYWGQGTTVTVSS VL: DIVMTQSPASLAVSLGERATISCRASESVDSYGNSFMHWYQQKPGQPPKLLIYRASNLESGVPDRFSGSGSRTDFTLTINPLQAEDVATYYCHQSADLPWTFGGGTKVEIKR
pKd: 8.22

Which measured pKd value corresponds to Ab2_G4 (antibody, human IgG4 S228P, kappa, V domains shown, human IgG4 format) VH: EVQLVESGGGLVKPGGSLRLSCAASGFTFSSYVMSWVRQTPGKGLEWVATISSGGTYTYYPDSVKGRFTLSRDNAKNSLYLQMNSLRAEDTAVYYCASSVDGSAFDYWGQGTTVTVSS VL: DIVITQSPASLAVSLGERATISCRASESVDSYGMSFMHWYQQKPGQPPKLLIYRASNLESGVPDRFSGSGSRTDFTLTINPLQAEDVATYYCHQSSENLPWTFGGGTKVEIKR ?
8.51

Which measured pKd value corresponds to Ab9_G2 (antibody, human IgG2, V domains shown, same antibody as Ab9_G4 except human IgG2 CH1, hinge, CH2 and CH3) VH: EVQLVESGGGLVKPGGSLRLSCAASGFTFSSYVMSWVRQTPGKGLEWVATISSGGTYTYYPNSVKGRFTLSRDNAKNSLYLQMNSLRAEDTAVYYCVSSMTGSSFDYWGQGTTVTVSS VL: DIVITQSPASLAVSLGERATISCRASESVDSYGNSFMHWYQQKPGQPPKLLIYRASNLESGVPDRFSGSGSRTDFTLTINPLQAEDVATYYCHQSSEQLPWTFGGGTKVEIKR ?
8.68

Which measured pKd value corresponds to Ab1_G2 (antibody, human IgG2, V domains shown) VH: EVQLVESGGGLVKPGGSLRLSCAASGFTFSSYVMSWVRQTPGKGLEWVATISSGGTYTYYPSSVKGRFTLSRDNAKNSLYLQMNSLRAEDTAVYYCASSLTGSSFDYWGQGTTVTVSS VL: DIVLTQSPASLAVSLGERATISCRASESVDLYGTSFMHWYQQKPGQPPKLLIYRASNLESGVPDRFSGSGSRTDFTLTINPLQAEDVATYYCHQSSDELPWTFGGGTKVEIKR ?
8.60
